# Tested on: Dengue virus
# Assay notes: Inhibition of Dengue virus NS2B-NS3 protease expressed in Escherichia coli BL21 lambda (DE3) using Abz-NleKRRS-3-(NO2)Y as substrate at 50 uM preincubated for 15 mins before substrate addition measured up to 15 mins by spectrofluorimetry
Active and inactive are the calls of the source. The rule behind the calls is not given here.
Observed property: inhibition

See these solved cases before continuing.
N#C/C(=C\c1ccc(N2CCCCC2)cc1)C(N)=O | 14%
CC(C)c1ccc(/C=C(\C#N)C(=O)NC2CC2)cc1 | 18.2%
COc1cc(CC(C#N)C(N)=O)cc(OC)c1OC (centres undefined) | inactive
CN(C)c1ccc(/C=C(\C#N)C(N)=S)cc1 | inactive

Please report inhibition for every entry that follows.
1. COc1cc(/C=C(\C#N)C(N)=O)cc(OC)c1OC
2. CC(C)c1ccc(/C=C(\C#N)C(=O)NCC2CCCO2)cc1 (centres undefined)
3. CCC/C(=C(\C#N)C(N)=O)c1ccccc1
4. CN(C)c1ccc(/C=C(\C#N)C(=O)O)cc1
5. CN(C)c1ccc(/C=C/C=C(\C#N)C(=O)NC2CC2)cc1
6. C/C(=C(/C#N)C(N)=O)c1ccccc1
7. CN(C)c1ccc(/C=C(\C#N)C(=O)NC2CC2)cc1

Result ::
1: 15.6%; 2: 28.2%; 3: 7.6%; 4: 38.7%; 5: 10.3%; 6: inactive; 7: 22.6%
